Hey, just so you know, these numbers are from patent US20240092922A1.

SYSTEM NAME: T1, human 4-1BB (h4-1BB) on transiently transfected CHO cells (human, UniProt Q07011 24-255)
T1 construct: also called TNFRSF9; CD137
ASSAY REMARKS: flow cytometry, CHO cells transfected with human 4-1BB, antibody at 10 µg/ml
MEASURED QUANTITY: percentage of cells with FITC signal
Give me the value, and tack the unit on after it.

Use these answered entries as a reference point.
45-8E2 (antibody, V domains shown, mouse antibody purified from ascites) VH: EVKLLESGGGLVQPGGSLKLSCAASGFDFSRYWMSWVRQAPGKGLEWIGEIHPDSSAINYTPSLKDKFIISRDNAKNTLYLQMSKVRSEDTALYYCARSYYGRVFDYWGQGTTLTVSS VL: DIVMTQSPATLSVTPGDRVSLSCRASQSISDYLHWYQQKSHESPRLLIKYASQSISGIPPRFSGSGSGSDFTLSINSVEPEDVGMYYCQDGHSFPPTFGAGTKLELK ... 58.9%
29-6A5 (antibody, V domains shown, mouse antibody purified from ascites) VH: QVQLQQPGAELVRPGASVKLSCKASGYTFSSYWINWVKQRPGQGLEWIGNIYPSDSYTNYNQKFKDKATLTVDKSSSTAYMQLSSPTSDDSAVYYCTRTWEFYYDSVFDYWGQGTTLTVSS VL: DIKMTQSPSSMYASLGERVTITCKASQDINSYLSWFQQKPGKSPKTLIYRANRLVDGVPSRFSGSGSGQDYSLTISSLEYEDMGIYYCLQYDELPPTFGGGTKLEIK ... 80.5%
16-1C4 (antibody, V domains shown, mouse antibody purified from ascites) VH: QGQMQQSGAELVKPGASVKLSCKTSGFTFSSSYINWLKQKPGQSLEWIAWIFAGTGGTYYNQKFTGKAQLTVDTSSGTAYMQFSSLTTEDSAIYYCARHSPRATLFDFWGQGTTLTVSS VL: QIVLSQSPAILSASPGEKVTMTCRASSSVNHMHWYQQRTGFSPKAWIYATSNLASGVPARFSGSGSGTSYSLTISRVEAEDAATYYCQQWSSNPYTFGGGTKLEIK ... 69.1%
69-3C2 (antibody, V domains shown, mouse antibody purified from ascites) VH: DVQLVESGGGLVQPGGSRKLSCAASGFSFSSFGMHWMRQAPEKGLEWVAYISSGSSAIYYADTVKGRFTISRDNPKNTLFLQMTSLRSEDTAMYYCARDWVDYWGQGTTLTVSS VL: DIQMTQSPASLSVSVGETVTITCRASENIYSNLVWYQQKQGKSPQLLVYTATKLTNGVPSRFSGSGSGTQYSLKINSLQSEDFGTYYCQHFWDTPYTFGGGTKLEMK ... 58.5%

Lab note: next binder to report on.
Request: Given the binder 45-8F1 (antibody, V domains shown, mouse antibody purified from ascites) VH: EVQLQQSGTVLARPGASVKMSCKASGYSFTSYWMHWVKQRPGQGLEWIGVIYPGNSDTSYNQKFKGKAKLTAVTSASTAYMDLSSLTNEDSAVYYCTRGITTAPDYWGQGTTLTVSS VL: NIVMTQSPKSMSMSVGERVTLSCKASENVGIHVSWYQQKPEQSPKLLIYGASSGYNGVPDRFTGSGSATDFTLTISSVQPEDLADYHCGQTYSYPFTFGSGTKLEIK , what is its reported percentage of cells with FITC signal?
Result: 58.6%
